These records show pKi for human serotonin transporter (hSERT) (Homo sapiens).
Where a name gives a salt, the structure may show the parent alone.
For clarity, pKi is expressed as the negative log10 of concentration in mol/L.

Task: Item under review: Fc1cccc2c1c(OC1CCNCC1)nn2-c1ccccc1 [Example 103, hydrochloride] . Reported pKi?
Output: 6.53

Task: Item under review: Fc1cc2c(OC3CCNCC3)nn(-c3ccccc3F)c2cc1F [Example 75, hydrochloride] . Reported pKi?
Output: 7.40

Task: Item under review: Fc1ccccc1-n1nc(OCC2CCCNC2)c2ccccc21 (stereo not drawn) [Example 4, hydrochloride] . Reported pKi?
Output: 6.57

Task: Item under review: Fc1ccc(-n2nc(OC[C@H]3CCCNC3)c3c(F)cccc32)c(F)c1 [Example 89, hydrochloride] . Reported pKi?
Output: 6.39

Task: Item under review: Fc1cccc(F)c1-n1nc(OC[C@H]2CCCNC2)c2c(F)cccc21 [Example 110, hydrochloride] . Reported pKi?
Output: 6.37

Task: Item under review: Fc1cccc(-n2nc(OC3CCNCC3)c3cc(F)ccc32)c1 [Example 77, hydrochloride] . Reported pKi?
Output: 7.30

Task: Item under review: Fc1ccc(F)c(-n2nc(OC[C@H]3CCNC3)c3ccccc32)c1 [Example 32, hydrochloride] . Reported pKi?
Output: 7.47

Task: Item under review: Fc1ccccc1-n1nc(OC[C@H]2CCCNC2)c2c(F)cccc21 [Example 85, hydrochloride] . Reported pKi?
Output: 6.00

Task: Item under review: Clc1ccc2c(OC3CCNCC3)nn(-c3ccccc3)c2c1 [Example 64, hydrochloride] . Reported pKi?
Output: 6.57

Task: Item under review: Fc1ccc2c(c1)c(OCC1CCCNC1)nn2-c1ccccn1 (stereo not drawn) [Example 99, hydrochloride] . Reported pKi?
Output: 6.59

Task: Item under review: Fc1ccc(F)c(-n2nc(OC3CCNCC3)c3c(F)cccc32)c1 [Example 90, hydrochloride] . Reported pKi?
Output: 6.85

Task: Item under review: Fc1ccccc1-n1nc(OC[C@@H]2CNCCO2)c2c(F)cccc21 [Example 98, maleate] . Reported pKi?
Output: 5.41

Task: Item under review: c1ccc(-n2nc(OCC3CCCNC3)c3ccccc32)cc1 (racemic) [Example 16, hydrochloride] . Reported pKi?
Output: 6.65

Task: Item under review: Fc1ccc2c(c1)c(OC[C@@H]1CCCNC1)nn2-c1ccccc1F [Example 55, maleate] . Reported pKi?
Output: 6.90

Task: Item under review: Fc1ccc(-n2nc(OC3CCNCC3)c3ccccc32)c(F)c1 [Example 10, hydrochloride] . Reported pKi?
Output: 7.44
